- System: HCV replicon 1B
- assay.protocol: microbe, parasite or virus in culture
- Format: cell-based, Hepatitis C virus (HCV)
- experimental.parameters: Hepatitis C virus, HCV replicon 1B; Replicon Assay B
measured.quantity: pIC50
Here pIC50 is given on a logarithmic scale as minus log10 of the concentration in mol/L.

{"compound": "COC(=O)N[C@H](C(=O)N1C[C@H](F)C[C@H]1c1ncc(-c2ccc3c(c2)cc2n3C(c3cc4ccccc4s3)Oc3cc(-c4cnc([C@@H]5CCCN5C(=O)[C@@H](NC(=O)OC)C5CCOCC5)[nH]4)ccc3-2)[nH]1)C(C)C (single isomer, unassigned)", "pIC50": 11.51}
{"compound": "COC(=O)N[C@H](C(=O)N1CCC[C@H]1c1ncc(-c2cc(F)c3c(c2)OC(c2ccc(C4CC4)s2)n2c-3cc3cc(-c4cnc([C@@H]5C[C@@H](F)CN5C(=O)[C@@H](NC(=O)OC)C(C)C)[nH]4)ccc32)[nH]1)C(C)C (stereo partly shown)", "pIC50": 11.52}
{"compound": "COC(=O)N[C@H](C(=O)N1CCC[C@H]1c1ncc(-c2ccc3c(c2)OC(c2cc4sccc4s2)n2c-3cc3cc(-c4c[nH]c([C@@H]5C[C@H]6C[C@H]6N5C(=O)[C@@H](NC(=O)OC)C(C)C)n4)ccc32)[nH]1)C(C)C (single isomer, unassigned)", "pIC50": 11.40}
{"compound": "COC(=O)N[C@H](C(=O)N1CCC[C@H]1c1ncc(-c2cc(C)c3c(c2)OC(c2ccc(C4CC4)s2)n2c-3cc3cc(-c4cnc([C@@H]5C[C@H]6C[C@H]6N5C(=O)[C@@H](NC(=O)OC)C5CCOCC5)[nH]4)ccc32)[nH]1)C(C)C (single isomer, unassigned)", "pIC50": 11.52}
{"compound": "COC(=O)NC(C(=O)N1CCC[C@H]1c1ncc(-c2ccc3c(c2)cc2n3C(c3cc4ccccc4s3)Oc3cc(-c4cnc([C@@H]5CCCN5C(=O)[C@@H](NC(=O)OC)C(C)C)[nH]4)cc(F)c3-2)[nH]1)C1C[C@@H](C)O[C@@H](C)C1 (single isomer, unassigned)", "pIC50": 11.96}
{"compound": "COC(=O)N[C@H](C(=O)N1CCC[C@H]1c1ncc(-c2cc(F)c3c(c2)OC(c2cc4c(s2)CCC4)n2c-3cc3cc(-c4cnc([C@@H]5CCCN5C(=O)[C@@H](NC(=O)OC)C5CCOCC5)[nH]4)ccc32)[nH]1)C(C)C (single isomer, unassigned)", "pIC50": 11.72}

Ask | Name the recorded pIC50 for COC(=O)N[C@H](C(=O)N1CCC[C@H]1c1ncc(-c2cc3c4c(c2)OC(c2ccc(Cl)s2)n2c-4c(c4cc(-c5cnc([C@@H]6CCCN6C(=O)[C@@H](NC(=O)OC)C(C)C)[nH]5)ccc42)CC3)[nH]1)C(C)C (stereo partly shown) .
Reply | 10.31
